Record form. Attribute: IC50. Fill in for each entry.
target: human recombinant MAGL (Homo sapiens (Human)); assay: In vitro inhibition of MAGL activity (inhibitor screening kit, 4-nitrophenylacetate); conditions: human recombinant MAGL

Example entries and their recorded answers appear below.
| Molecule | IC50 |
| --- | --- |
| O=C(NC1CCCCC1)Oc1cccc(-c2cncc(-c3cccs3)c2)c1 [Example 63] | > 10 µM |
| COc1ccc(OC(=O)NC2CCCCCC2)cc1-c1cncc(-c2ncn[nH]2)c1 [Example 237] | > 10 µM |

For the 3 molecules below, give their IC50 values.
1. COc1ccc(OC(=O)NC2CCCC2)cc1-c1cncc(-c2nnco2)c1 [Example 169]
2. O=C(NCC1CCCCC1)Oc1cccc(-c2cncc(-c3ncno3)c2)c1 [Example 204]
3. O=C(NC1CCCC1)Oc1cccc(-c2cncc(-c3ccco3)c2)c1 [Example 50]

Outgoing:
> 10 µM
> 10 µM
~10 µM

For the 8 molecules below, give their IC50 values.
1. CC1CCC(NC(=O)Oc2ccc(F)c(-c3cncc(-c4nnco4)c3)c2)CC1 (centres unmarked) [Example 193]
2. CC1CCCCN1C(=O)Oc1cccc(-c2cncc(-c3nnco3)c2)c1 (centres unmarked) [Example 143]
3. O=C(NCc1ccccc1)Oc1cccc(-c2cncc(-c3nncs3)c2)c1 [Example 209]
4. O=C(NC1CCCC1)Oc1cccc(-c2cncc(-c3ncco3)c2)c1 [Example 75]
5. O=C(NC1CCCC1)Oc1cccc(-c2cc(-c3nnco3)ccn2)c1 [Example 259]
6. CCCCCCCCNC(=O)Oc1ccc(OC)c(-c2cncc(-c3nnn[nH]3)c2)c1 [Example 250]
7. COC(=O)c1cncc(-c2cccc(OC(=O)NC3CCCCC3)c2)c1 [Example 12]
8. COC(=O)c1cncc(-c2cccc(OC(=O)NC3CCCC3)c2)c1 [Example 11]

Outgoing:
1: > 10 µM; 2: > 10 µM; 3: > 10 µM; 4: > 10 µM; 5: > 10 µM; 6: ~10 µM; 7: > 10 µM; 8: > 10 µM

For the 7 molecules below, give their IC50 values.
1. CCCCCCCNC(=O)Oc1cccc(-c2cncc(C(=O)NO)c2)c1 [Example 22]
2. CCCCCCCCNC(=O)Oc1ccc(O)c(-c2cncc(-c3nnn[nH]3)c2)c1 [Example 244]
3. O=C(NCC1CCCCC1)Oc1cccc(-c2cncc(-c3nnn[nH]3)c2)c1 [Example 239]
4. O=C(NC1CCCCCC1)Oc1cccc(-c2cncc(C(F)(F)F)c2)c1 [Example 34]
5. O=C(Nc1cccc2ccccc12)Oc1cccc(-c2cncc(-c3nnco3)c2)c1 [Example 140]
6. CCCCCCCCNC(=O)Oc1ccc(N(C)C)c(-c2cncc(-c3nnco3)c2)c1 [Example 180]
7. CC1CCC(NC(=O)Oc2ccc(OC(F)(F)F)c(-c3cncc(-c4nnco4)c3)c2)CC1 (centres unmarked) [Example 201]

Outgoing:
1. > 1 µM
2. > 10 µM
3. > 10 µM
4. > 10 µM
5. > 50 µM
6. > 10 µM
7. > 1 µM

* * *

target: human recombinant MAGL (Homo sapiens (Human)); assay: In vitro inhibition of MAGL activity (inhibitor screening kit, 4-nitrophenylacetate); details: human recombinant MAGL
Recorded Endpoint: IC50

For the 5 molecules below, give their IC50 values.
1. COc1cc(OC(=O)NC2CCCC2)cc(-c2cncc(-c3nnco3)c2)c1
2. O=C(NCC1CCCCC1)Oc1cccc(-c2cncc(-c3nnco3)n2)c1
3. CCCCCCCCNC(=O)Oc1cccc(-c2cncc(-c3ncn[nH]3)c2)c1
4. CCCCCCCCNC(=O)Oc1cccc(-c2cncc(C(=O)NO)c2)c1
5. O=C(NC12CC3CC(CC(C3)C1)C2)Oc1cccc(-c2cncc(-c3ncco3)c2)c1

Outgoing:
["> 10 µM", "~10 µM", "~10 µM", "> 10 µM", "> 10 µM"]

* * *

biological target: human recombinant FAAH (Homo sapiens (Human)); assay: In vitro inhibition of FAAH activity (fluorescent inhibitor screening kit, AMC arachidonoyl amide); format: biochemical; conditions: human recombinant FAAH; read-out: Inhibition on FAAH activity (IC50)
Recorded Endpoint: IC50

| Compound | IC50 |
| --- | --- |
| O=C(NC1CCCCCC1)Oc1ccc(F)c(-c2cncc(-c3nnco3)c2)c1 [Example 194] | 49.1 nM |
| COc1ccc(OC(=O)NC2CCCC2)cc1-c1cncc(-c2ncco2)c1 [Example 80] | 10 to 100 nM |
| CCCCCCCNC(=O)Oc1cccc(-c2cncc(C(=O)OC)c2)c1 [Example 9] | 1 to 10 nM |
| COc1ccc(OC(=O)NCC2CCCCC2)cc1-c1cncc(-c2ccno2)c1 [Example 110] | 10 to 100 nM |
| CCCCCNC(=O)Oc1cccc(-c2cncc(C(=O)OCC)c2)c1 [Example 1] | 10 to 100 nM |

For the 4 compounds below, give their IC50 values.
1. O=C(NCc1ccccc1)Oc1cccc(-c2cncc(-c3nncs3)c2)c1 [Example 209]
2. CCCCCCCCNC(=O)Oc1ccc(OC)c(-c2cncc(-c3ccco3)c2)c1 [Example 53]
3. Cc1ccc(-c2cncc(-c3ncco3)c2)cc1OC(=O)NCc1ccccc1 [Example 94]
4. O=C(NC1CCCC1)Oc1cccc(-c2cncc(-c3nccs3)c2)c1 [Example 118]

Outgoing:
1: ~100 nM; 2: 10 to 100 nM; 3: > 1000 nM; 4: ~100 nM

* * *

biological target: human recombinant MAGL (Homo sapiens (Human), UniProt Q99685); assay: In vitro inhibition of MAGL activity (inhibitor screening kit, 4-nitrophenylacetate); settings: human recombinant MAGL
Sequence (Q99685 whole entry): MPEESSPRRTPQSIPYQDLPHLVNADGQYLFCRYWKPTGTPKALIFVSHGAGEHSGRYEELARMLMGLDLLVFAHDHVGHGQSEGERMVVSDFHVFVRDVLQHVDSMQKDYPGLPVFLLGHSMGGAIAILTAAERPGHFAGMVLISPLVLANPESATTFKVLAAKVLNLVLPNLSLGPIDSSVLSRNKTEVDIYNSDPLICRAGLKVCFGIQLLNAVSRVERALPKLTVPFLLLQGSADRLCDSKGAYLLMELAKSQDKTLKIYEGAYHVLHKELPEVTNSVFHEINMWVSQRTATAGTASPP
pIC50: −log10 of the molar value.
Recorded Endpoint: pIC50

Example entries and their recorded answers appear below.
| Molecule | pIC50 |
| --- | --- |
| CCCCCCCCNC(=O)Oc1ccc(OC)c(-c2cncc(-c3ccno3)c2)c1 [Example 109] | ~5.00 |
| CCOC(=O)c1cncc(-c2cccc(OC(=O)Nc3ccc(F)cc3)c2)c1 [Example 7] | < 5.00 |

For the 3 molecules below, give their pIC50 values.
1. Cc1cc(OC(=O)NC2CCCCC2)cc(-c2cncc(-c3ncco3)c2)c1 [Example 101]
2. O=C(NC1CCCCCC1)Oc1cccc(-c2cncc(-c3nnco3)n2)c1 [Example 268]
3. CCCCCCCCNC(=O)Oc1cccc(-c2cncc(-c3cccs3)c2)c1 [Example 59]

Outgoing:
1. < 5.00
2. 5.00 to 6.00
3. < 5.00

* * *

biological target: human recombinant FAAH (Homo sapiens (Human), UniProt O00519); assay: In vitro inhibition of FAAH activity (fluorescent inhibitor screening kit, AMC arachidonoyl amide); format: biochemical; details: human recombinant FAAH; read-out: Inhibition on FAAH activity (IC50)
Sequence (O00519 whole entry): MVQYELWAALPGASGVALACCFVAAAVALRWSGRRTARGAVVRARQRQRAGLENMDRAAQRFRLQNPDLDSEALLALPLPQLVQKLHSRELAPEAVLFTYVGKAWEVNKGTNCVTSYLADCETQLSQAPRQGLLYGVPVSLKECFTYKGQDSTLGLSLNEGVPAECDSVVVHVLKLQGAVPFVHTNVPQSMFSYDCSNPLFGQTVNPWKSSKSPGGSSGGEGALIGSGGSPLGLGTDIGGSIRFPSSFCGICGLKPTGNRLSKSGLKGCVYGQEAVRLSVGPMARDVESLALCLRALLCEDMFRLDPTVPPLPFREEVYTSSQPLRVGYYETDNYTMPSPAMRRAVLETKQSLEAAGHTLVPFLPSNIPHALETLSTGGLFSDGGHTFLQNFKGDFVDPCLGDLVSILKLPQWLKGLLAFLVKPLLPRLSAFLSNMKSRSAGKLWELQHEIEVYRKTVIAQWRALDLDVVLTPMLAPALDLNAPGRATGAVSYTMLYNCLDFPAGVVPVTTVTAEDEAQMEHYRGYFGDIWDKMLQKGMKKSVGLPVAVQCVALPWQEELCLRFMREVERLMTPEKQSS
pIC50: −log10 of the molar value.
Recorded Endpoint: pIC50

Example entries and their recorded answers appear below.
| Compound | Experimental System | Value Measured |
| --- | --- | --- |
| CCCCN(CCCC)C(=O)Oc1cccc(-c2cncc(-c3nnco3)c2)c1 [Example 155] | human recombinant FAAH (Homo sapiens (Human), UniProt O00519) | < 6.00 |
| O=C(NC1CCCC1)Oc1cccc(-c2cncc(-c3ncn[nH]3)c2)c1 [Example 223] | human recombinant FAAH (Homo sapiens (Human), UniProt O00519) | 6.00 to 7.00 |
| O=C(NCC1CCCCC1)Oc1cccc(-c2cncc(-c3ccc[nH]3)c2)c1 [Example 36] | human recombinant FAAH (Homo sapiens (Human), UniProt O00519) | 6.00 to 7.00 |
| Cc1ccc(-c2cncc(-c3ncco3)c2)cc1OC(=O)NC1CCC(C)CC1 (centres unmarked) [Example 96] | human recombinant FAAH (Homo sapiens (Human), UniProt O00519) | < 6.00 |
| CCCCCCCNC(=O)Oc1cccc(-c2cncc(C=O)c2)c1 [Example 15] | human recombinant FAAH (Homo sapiens (Human), UniProt O00519) | 7.00 to 8.00 |

For the 7 compounds below, give their pIC50 values.
1. O=C(NCc1ccccc1)Oc1cccc(-c2cncc(-c3nccs3)c2)c1 [Example 117]
2. CCCCCCCCNC(=O)Oc1cccc(-c2cncc(-c3ccno3)c2)c1 [Example 105]
3. CCCCCCCCNC(=O)Oc1ccc(N(C)C)c(-c2cncc(-c3nnco3)c2)c1 [Example 180]
4. CCCCCCCCNC(=O)Oc1ccc(OC)c(-c2cncc(-c3ccc[nH]3)c2)c1 [Example 41]
5. O=C(NC1CCCC1)Oc1cccc(-c2cncc(C(F)(F)F)c2)c1 [Example 32]
6. O=C(Nc1ccccc1)Oc1ccc(OC(F)(F)F)c(-c2cncc(-c3nnco3)c2)c1 [Example 203]
7. O=C(NC1CCCCCC1)Oc1cccc(-c2cncc(-c3ccco3)c2)c1 [Example 52]

Outgoing:
6.00 to 7.00
8.00 to 9.00
7.00 to 8.00
7.00 to 8.00
7.00 to 8.00
< 6.00
7.00 to 8.00
